The origin of these recorded values is ChEMBL document CHEMBL2346498.

- Method: Inhibition of recombinant Toxoplasma gondii DXR catalytic domain (68 to 513) expressed in Escherichia coli BL21 using DXP as substrate after 10 mins by Uv-spectrophotometric analysis
- Type: cell-free
Value Type: pKi
Kindly note that pKi refers to -log10 of the concentration in mol/L and answer with the value alone.

Q: Fill in: pKi of O=CN(O)CCC(c1cccnc1)P(=O)(O)O (stereo not given) is ___
A: 7.26

Q: One more compound: O=CN(O)CCC(c1ccc(Cl)c(Cl)c1)P(=O)(O)O (stereo not given)
A: 7.11

Q: One more compound: CC(=O)N(O)CCCP(=O)(O)O
A: 7.32

Q: One more compound: O=P(O)(O)Cc1ccccn1
A: 5.39

Q: One more compound: CC(=O)N(O)CCC(c1ccc(Cl)c(Cl)c1)P(=O)(O)O (stereo not given)
A: 6.66
